target-or-test-system: Amine oxidase [flavin-containing] B (Mus musculus, UniProt Q8BW75)
Sequence (Q8BW75 whole entry): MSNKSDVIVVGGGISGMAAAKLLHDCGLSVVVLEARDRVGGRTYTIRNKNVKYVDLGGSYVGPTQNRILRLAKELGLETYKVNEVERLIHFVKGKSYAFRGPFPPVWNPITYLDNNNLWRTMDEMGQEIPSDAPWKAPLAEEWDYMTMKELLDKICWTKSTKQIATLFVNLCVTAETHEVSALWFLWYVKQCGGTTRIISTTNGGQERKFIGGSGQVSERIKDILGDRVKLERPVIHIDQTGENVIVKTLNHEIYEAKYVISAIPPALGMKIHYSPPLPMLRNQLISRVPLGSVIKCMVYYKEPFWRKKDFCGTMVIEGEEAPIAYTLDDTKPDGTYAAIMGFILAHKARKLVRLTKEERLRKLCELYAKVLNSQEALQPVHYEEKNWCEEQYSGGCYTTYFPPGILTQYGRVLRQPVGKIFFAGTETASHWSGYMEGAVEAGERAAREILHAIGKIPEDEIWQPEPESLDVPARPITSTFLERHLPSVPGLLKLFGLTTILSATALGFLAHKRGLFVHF
pIC50: −log10 of the molar value.
recorded-endpoint: pIC50

Requested read-out: pIC50. Entry: "COc1cc2c(cc1OC)CNCC2"
< 3.00

The values you see were collected from ChEMBL document CHEMBL5113541.
